List of pIC50 values.
# TARGET: EGFR (human)
# CONDITION_NOTES: a431
Answer as the number alone; pIC50 is minus log10 of concentration in mol/L.

Sample records with pIC50:
Query: // query pIC50 value for entry "Fc1cccc(COc2ccc(Nc3ncnc4ccc(-c5ccn(C[C@H]6CN7CCC[C@@H]7CO6)c5)cc34)cc2Cl)c1"
Reply: 5.88

Query: Same for OC(CN1CCC(N2CCCCC2)CC1)Cn1ccc(-c2ccc3ncnc(Nc4ccc5c(cnn5Cc5cccc(F)c5)c4)c3c2)c1 (centres undefined)
Reply: 6.28

Query: Could you do the same for "Fc1cccc(COc2ccc(Nc3ncnc4ccc(-c5ccn(CCCN6CCOCC6)c5)cc34)cc2Cl)c1" , please?
Reply: 5.86

# next molecule below
Query: Param item = CCN(CC)CC(O)Cn1ccc(-c2ccc3ncnc(Nc4ccc(OCc5cccc(F)c5)c(Cl)c4)c3c2)c1 (centres undefined) ; retrieve measured pIC50.
Reply: 6.46

----------
Consider the following pIC50 values measured on EGFR (human).
# pIC50 is unitless: minus log10 of the molar concentration; print number only

Reference set (5 entries):
Query: Param item = "O=S1(=O)CCC(O)(CNCc2cc(-c3ccc4ncnc(Nc5ccc6c(cnn6Cc6cccc(F)c6)c5)c4c3)c[nH]2)CC1" ; retrieve measured pIC50.
Reply: 8.22

Query: Next up: CC(=O)NC1CCN(CC(O)Cn2ccc(-c3ccc4ncnc(Nc5ccc(OCc6cccc(F)c6)c(Cl)c5)c4c3)c2)CC1 (stereo unspecified)
Reply: 9.00

Query: Another compound to check: "Fc1cccc(COc2ccc(Nc3ncnc4ccc(-c5ccn(CCN6CCN(CC7CC7)CC6)c5)cc34)cc2Cl)c1"
Reply: 7.03

Query: Now consider "O=C(c1cn(-c2ccc3ncnc(Nc4ccc(OCc5cccc(F)c5)c(Cl)c4)c3c2)cc1CCO)N1CCCCC1" .
Reply: 8.52

Query: What do you get for "Fc1cccc(COc2ccc(Nc3ncnc4ccc(-c5ccn(C[C@H]6CN7CCC[C@@H]7CO6)c5)cc34)cc2Cl)c1" ?
Reply: 7.13

Next:
Query: Entry "CN1CCN(CCn2ccc(-c3ccc4ncnc(Nc5ccc(OCc6cccc(F)c6)c(Cl)c5)c4c3)c2)CC1" has what pIC50?
Reply: 7.77

Query: Next up: "Fc1cccc(COc2ccc(Nc3ncnc4ccc(-c5cc(CNCCN6CCOCC6)c[nH]5)cc34)cc2Cl)c1"
Reply: 8.10

----------
# TARGET: EGFR (human) (UniProt P00533)
# Sequence (P00533 whole entry, looked up): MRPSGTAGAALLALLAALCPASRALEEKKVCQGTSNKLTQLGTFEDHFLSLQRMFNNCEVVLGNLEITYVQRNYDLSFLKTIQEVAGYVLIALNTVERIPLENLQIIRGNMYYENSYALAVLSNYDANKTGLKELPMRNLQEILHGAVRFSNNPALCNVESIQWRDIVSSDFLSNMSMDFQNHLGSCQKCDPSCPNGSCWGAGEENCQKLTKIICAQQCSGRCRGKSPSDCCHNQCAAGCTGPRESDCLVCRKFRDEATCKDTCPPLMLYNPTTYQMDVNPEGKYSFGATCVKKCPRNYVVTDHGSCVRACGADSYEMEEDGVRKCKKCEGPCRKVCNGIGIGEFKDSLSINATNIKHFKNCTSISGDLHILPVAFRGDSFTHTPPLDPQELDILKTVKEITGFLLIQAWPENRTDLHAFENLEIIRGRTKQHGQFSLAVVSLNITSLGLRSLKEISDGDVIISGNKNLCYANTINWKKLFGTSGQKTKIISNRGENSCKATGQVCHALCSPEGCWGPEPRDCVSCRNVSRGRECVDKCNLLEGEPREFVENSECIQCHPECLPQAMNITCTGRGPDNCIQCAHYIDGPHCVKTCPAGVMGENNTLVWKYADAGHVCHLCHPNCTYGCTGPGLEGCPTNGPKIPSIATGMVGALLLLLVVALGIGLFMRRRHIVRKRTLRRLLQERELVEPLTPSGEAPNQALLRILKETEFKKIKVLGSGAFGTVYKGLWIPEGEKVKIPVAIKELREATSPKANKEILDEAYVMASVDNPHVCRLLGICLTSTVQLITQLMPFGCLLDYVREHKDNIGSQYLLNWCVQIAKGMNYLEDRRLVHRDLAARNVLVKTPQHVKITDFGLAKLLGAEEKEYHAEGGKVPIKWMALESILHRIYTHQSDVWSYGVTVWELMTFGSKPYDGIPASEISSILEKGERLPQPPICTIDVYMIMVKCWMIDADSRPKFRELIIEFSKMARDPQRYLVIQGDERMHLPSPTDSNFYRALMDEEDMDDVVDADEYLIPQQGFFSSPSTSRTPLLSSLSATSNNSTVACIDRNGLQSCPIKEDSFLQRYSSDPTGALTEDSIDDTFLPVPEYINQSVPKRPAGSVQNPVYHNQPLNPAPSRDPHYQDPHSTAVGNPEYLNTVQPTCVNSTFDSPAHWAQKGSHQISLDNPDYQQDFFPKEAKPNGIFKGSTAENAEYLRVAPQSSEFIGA
# CONDITION_NOTES: a431
QUANTITY_NAME: IC50 (nM)
Express the result in nM but write the number alone.

Look over these answered cases.
Query: Give the measured IC50 of "O=C(Cn1ccc(-c2ccc3ncnc(Nc4ccc(OCc5cccc(F)c5)c(Cl)c4)c3c2)c1)N1CCSC1" .
Reply: 500

Query: Proceed to OC(CN1CCN(C2CC2)CC1)Cn1ccc(-c2ccc3ncnc(Nc4ccc(OCc5cccc(F)c5)c(Cl)c4)c3c2)c1 (stereo unspecified)
Reply: 521

Further cases:
Query: Return reported IC50; argument: "O=C(NCC1CCS(=O)(=O)CC1)c1cc(-c2ccc3ncnc(Nc4ccc(OCc5cccc(F)c5)c(Cl)c4)c3c2)c[nH]1"
Reply: 706

Query: Entry "OC1CCN(C[C@H](O)Cn2ccc(-c3ccc4ncnc(Nc5ccc(OCc6cccc(F)c6)c(Cl)c5)c4c3)c2)CC1" please
Reply: 660

Query: Same for OC(CN1CC=CC1)Cn1ccc(-c2ccc3ncnc(Nc4ccc(OCc5cccc(F)c5)c(Cl)c4)c3c2)c1 (stereo unspecified)
Reply: 431

Query: Next: CS(=O)(=O)CCN1CCOC(Cn2ccc(-c3ccc4ncnc(Nc5ccc6c(cnn6Cc6cccc(F)c6)c5)c4c3)c2)C1 (stereo unspecified)
Reply: 572

Query: Next record, please: CC(=O)N[C@@H]1CCN(CC(O)Cn2ccc(-c3ccc4ncnc(Nc5ccc(OCc6cccc(F)c6)c(Cl)c5)c4c3)c2)C1 (stereo partly specified)
Reply: 3770

Query: How about COCCNCC(O)Cn1ccc(-c2ccc3ncnc(Nc4ccc5c(cnn5Cc5cccc(F)c5)c4)c3c2)c1 (stereo unspecified) ?
Reply: 582

----------
Documented IC50 across a set of molecules
# TARGET: EGFR (human)

Examples with their reported IC50 follow.
Query: Name the reported IC50 value associated with the molecule "COCCNC(=O)c1cn(-c2ccc3ncnc(Nc4ccc(OCc5ccccn5)c(Cl)c4)c3c2)cc1CCO"
Reply: 78 nM

Query: What about this molecule? "CN1CCN(CCNCc2cn(-c3ccc4ncnc(Nc5ccc(OCc6cccc(F)c6)c(Cl)c5)c4c3)cc2C(F)(F)F)CC1"
Reply: 32 nM

Then there is this molecule:
Query: Name the recorded IC50 for "O=C(Cn1ccc(-c2ccc3ncnc(Nc4ccc(OCc5cccc(F)c5)c(Cl)c4)c3c2)c1)N1CCNCC1" .
Reply: 41 nM

----------
# EGFR (human): IC50 values follow
Numeric only. Scale: nM

Examples with answers:
Query: Which value of IC50 has been reported for "Cn1cccc1-c1ccc2ncnc(Nc3ccc(OCc4cccc(F)c4)c(Cl)c3)c2c1" in the records?
Reply: 6

Query: Next up: "O=C(NCC1CCS(=O)(=O)CC1)c1cc(-c2ccc3ncnc(Nc4ccc(OCc5cccc(F)c5)c(Cl)c4)c3c2)c[nH]1"
Reply: 116

Query: Next record, please: CCN(CC)CCN1CCOC(Cn2ccc(-c3ccc4ncnc(Nc5ccc6c(cnn6Cc6cccc(F)c6)c5)c4c3)c2)C1 (stereo not drawn)
Reply: 248

Query: Thanks! And "Fc1cccc(COc2ccc(Nc3ncnc4ccc(-c5ccc[nH]5)cc34)cc2Cl)c1" ?
Reply: 4

Query: Item: Fc1cccc(COc2ccc(Nc3ncnc4ccc(-c5ccn(CCOC6CCCCO6)c5)cc34)cc2Cl)c1 (stereo not drawn)
Reply: 131

Query: Please give the result for CS(=O)(=O)CCN1CCOC(Cn2ccc(-c3ccc4ncnc(Nc5ccc6c(cnn6Cc6cccc(F)c6)c5)c4c3)c2)C1 (stereo not drawn) too.
Reply: 236

Query: Next entry: OCC(O)Cn1ccc(-c2ccc3ncnc(Nc4ccc(OCc5cccc(F)c5)c(Cl)c4)c3c2)c1 (stereo not drawn)
Reply: 27

The record that follows has no IC50 shown yet.
Query: IC50 for "CN1CCN(C(=O)Cn2ccc(-c3ccc4ncnc(Nc5ccc(OCc6cccc(F)c6)c(Cl)c5)c4c3)c2)CC1" ?
Reply: 6

----------
Listed below: IC50 values for each entry.
# TARGET: EGFR (human)
# CONDITION_NOTES: a431
Lab book: enter the figure in nM, no units written.

Please review the entries below; each comes with its answer.
Query: // fetch EGFR (human) IC50 for "CNCCn1ccc(-c2ccc3ncnc(Nc4ccc(OCc5cccc(F)c5)c(Cl)c4)c3c2)c1"
Reply: 3420

Query: Quick one: CS(=O)(=O)CCOCC(O)Cn1ccc(-c2ccc3ncnc(Nc4ccc(OCc5cccc(F)c5)c(Cl)c4)c3c2)c1 (centres undefined)
Reply: 615

Query: Can you check OC(CN1CC[C@@H](O)C1)Cn1ccc(-c2ccc3ncnc(Nc4ccc(OCc5cccc(F)c5)c(Cl)c4)c3c2)c1 (some centres undefined) next?
Reply: 360

Next:
Query: Please provide the recorded IC50 for "Fc1cccc(COc2ccc(Nc3ncnc4ccc(-c5ccn(CCN6CCC(N7CCCCC7)CC6)c5)cc34)cc2Cl)c1" , tested on EGFR (human).
Reply: 443

----------
Reported log10 IC50 for target or system UniProt P00533, by entry.
A value of 2 here means IC50 of 100 in nM, since values are log10.

Query: What log10 IC50 value was documented for this compound, "CC(=O)N[C@@H]1CCN(C(=O)Cn2ccc(-c3ccc4ncnc(Nc5ccc(OCc6cccc(F)c6)c(Cl)c5)c4c3)c2)C1" ?
Reply: 2.11

Query: Try this compound next: "Clc1cc(Nc2ncnc3ccc(-c4ccc[nH]4)cc23)ccc1OCc1ccccn1"
Reply: 0.70

Query: What about "Fc1cccc(COc2ccc(Nc3ncnc4ccc(-c5cc[nH]c5)cc34)cc2Cl)c1" ?
Reply: 0.60

Query: Then what about the compound "O=C(NCCCN1CCOCC1)c1cn(-c2ccc3ncnc(Nc4ccc(OCc5ccccn5)c(Cl)c4)c3c2)cc1CCO" ?
Reply: 1.98

New cases:
Query: Requested field: log10 IC50. Item: "O=C(NCCCN1CCOCC1)c1cn(-c2ccc3ncnc(Nc4ccc5c(cnn5Cc5ccc(F)cc5)c4)c3c2)cc1CCO"
Reply: 2.06

----------
Entries below carry reported log10(IC50) on EGFR (human).
Note the log scale: values are log10 of IC50 expressed in nM.

Field: example entries. Status: answers known.
Query: What does the data say about its log10(IC50)? Entry: O=S1(=O)CCC(CNCC(O)Cn2ccc(-c3ccc4ncnc(Nc5ccc(OCc6cccc(F)c6)c(Cl)c5)c4c3)c2)CC1 (stereo not drawn)
Reply: 1.62

Query: Another compound: "O=C(c1cn(-c2ccc3ncnc(Nc4ccc(OCc5cccc(F)c5)c(Cl)c4)c3c2)cc1CCO)N1CCCC1"
Reply: 1.18

Now consider a different compound.
Query: Given "CS(=O)(=O)CCNC1CCN(C[C@@H](O)Cn2ccc(-c3ccc4ncnc(Nc5ccc(OCc6cccc(F)c6)c(Cl)c5)c4c3)c2)CC1" , state its recorded log10(IC50).
Reply: 1.04
